B1: CPEB3 Ribozyme (parent)
chain: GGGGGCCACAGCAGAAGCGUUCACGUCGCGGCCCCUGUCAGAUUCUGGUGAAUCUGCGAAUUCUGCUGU

- Variants of: B1
- experimental-details: self-cleavage, relative activity (ratio to wild type); higher = more cleavage; co-transcriptional

{"columns": ["chain-sequence", "self-cleavage"],
 "data": [
  ["GGGGGCCACAGCAGAAGCGUUCACGUCGCGGCCCCAGUCAGAUUCUGGUGACUCUGCGAAUUCUGCUGU [U36A A52C]", 0.24],
  ["GGGGGCCACAGCAGAAGCGUUCACGUGGCGGCCCCUGUCAGAUUAUGGUGAAUCUGCGAAUUCUGCUGU [C27G C45A]", 0.17],
  ["GGGGGCCACAGCAGAAGCGUUCACGUCGCGGCCCCUGUCGGAUUCUGGUGAAUCUGCGAAUUCUGCUUU [A40G G68U]", 0.987],
  ["CGGGCCCACAGCAGAAGCGUUCACGUCGCGGCCCCUGUCAGAUUCUGGUGAAUCUGCGAAUUCUGCUGU [G1C G5C]", 0.15],
  ["GGGGGCCACAGCAGAAGCGUUCACGUCGCGGCCCCUGUCAGAUUCUGGUGAAUCUGUGAAUUCUUCUGU [C57U G65U]", 0.375],
  ["GGGGGCCACAACAGCAGCGUUCACGUCGCGGCCCCUGUCAGAUUCUGGUGAAUCUGCGAAUUCUGCUGU [G11A A15C]", 0.849],
  ["GGGGGCCACAGCAGAAGCGUUCACGUCGCGGCCCCUGUCAGAUUCUGGUGAAUCUCCGAAUUCUACUGU [G56C G65A]", 0.459],
  ["GGGGGCCACAGCAGACGCGUUCACGUCGCGGCCCCUGUCAGAUUCUGCUGAAUCUGCGAAUUCUGCUGU [A16C G48C]", 0.409],
  ["GGGGGACACAGCAGAAGCGUUCACGCCGCGGCCCCUGUCAGAUUCUGGUGAAUCUGCGAAUUCUGCUGU [C6A U26C]", 0.333],
  ["GGGGGCCACAGCAGACGCGUUCACGUCGCGGCCCCUGUCAGAUUAUGGUGAAUCUGCGAAUUCUGCUGU [A16C C45A]", 0.264],
  ["GGUGGCCACAGCAGAAGCGUUCACGUCGCGGCCCCUGUCAGAGUCUGGUGAAUCUGCGAAUUCUGCUGU [G3U U43G]", 0.0687],
  ["GGGGGCCACAGCAGAAGCGUUCACGUCGCGGCCCCUGUCAGAUUCUGGUGAAUAUGCGAAUUCUGCUUU [C54A G68U]", 0.963],
  ["GGGGGCCACAGCAGAAGCGUUCACGUCGCGGCCCCUAUCAGAUUCUGCUGAAUCUGCGAAUUCUGCUGU [G37A G48C]", 0.265],
  ["CGGGGCCACAGCAGAAGCGUUCACGUCGCGGCCCCUGUAAGAUUCUGGUGAAUCUGCGAAUUCUGCUGU [G1C C39A]", 0.174],
  ["GGGGGCCUCAGCAGAAGCGUUCACGUCGCGGCCCCUGUCAAAUUCUGGUGAAUCUGCGAAUUCUGCUGU [A8U G41A]", 0.789],
  ["GGGGGCGACAGCAGAAGCGUUCACGUCGGGGCCCCUGUCAGAUUCUGGUGAAUCUGCGAAUUCUGCUGU [C7G C29G]", 0.125],
  ["GGGGGCCACUGCAGAAGCGUUCACGUCGCGUCCCCUGUCAGAUUCUGGUGAAUCUGCGAAUUCUGCUGU [A10U G31U]", 0.895],
  ["GGGGGCCACAGCAGAAGGGUUCACGUCGCGGCCCCUGUCAGAUUCUGGUCAAUCUGCGAAUUCUGCUGU [C18G G50C]", 0.201],
  ["GGGGGCUACAGCAGAAGCGUUCACGUCGCGGCCCCUGUCAGAUUCGGGUGAAUCUGCGAAUUCUGCUGU [C7U U46G]", 0.934],
  ["GGGGGCCACAGCAGAAGCGUUCACGUCGCGGCCCCUGUCUGAUUCUGGUGAAUCUGCUAAUUCUGCUGU [A40U G58U]", 0.931],
  ["GGGGGCCACAGCAGAAGCGUUCACGUCGCGGCCCCUGUCAGAUUCUGGUGAAUCUGCGAAUUAUCCUGU [C63A G65C]", 0.491],
  ["GGGGGCCACAGCAGAAGCGUUCACGUCGCGGCCACUGUCAGAUUCUGGUGAAUCUGCGAAUUCUGCUGC [C34A U69C]", 0.992],
  ["CGGGGCCACAGCAGAAGCGUUCACGUCGCGGCCCCUGUCAGAUUCUGGAGAAUCUGCGAAUUCUGCUGU [G1C U49A]", 0.287],
  ["GGGGGCCACAGCAGAAGCGUUCACGUCGAGGCCCCUGUCAGAUUAUGGUGAAUCUGCGAAUUCUGCUGU [C29A C45A]", 0.635],
  ["GGGGGCCACAGCAGAAGCGUUCACGUCGCGUCCCCUGUCAGAUUCUGGUAAAUCUGCGAAUUCUGCUGU [G31U G50A]", 0.758],
  ["GGGGGCCACAGCAGAAGCGUUCACGUCGCGGCCCAUGUCAGAUUCUGGUGAAUCUGCGAAUUCUCCUGU [C35A G65C]", 0.191],
  ["GGGGGCCACAGCAGAAGCGUUCACGUCACGGCCUCUGUCAGAUUCUGGUGAAUCUGCGAAUUCUGCUGU [G28A C34U]", 0.244],
  ["GGGGGCCACAGUAGAAGCGUUCACGUCGCGGCCCCUGUCAGAUUCUGGUGAAUCUGCGAAUUCUGCUGA [C12U U69A]", 1.02],
  ["GGGGGCCACAGCAGAAGCGUUCACGUCGCGGCCCGUGUCAGCUUCUGGUGAAUCUGCGAAUUCUGCUGU [C35G A42C]", 0.308],
  ["GGGGGCCACAGCGGAAGCGUUCACGUCGCGGCCCCGGUCAGAUUCUGGUGAAUCUGCGAAUUCUGCUGU [A13G U36G]", 0.227],
  ["GGGGGCAACAGCAGAAGCGUUCACGUCGCGGCCCCUGUCAGAUUCUGGUGAAUCUGCGCAUUCUGCUGU [C7A A59C]", 0.239],
  ["GAGGGCCACAGCAGAAGCGUUCACGUCGCGGCCCCUGUCAGAUUCUGGAGAAUCUGCGAAUUCUGCUGU [G2A U49A]", 0.179],
  ["GGGGGCCACAGCAGUAGCGUUCACGUCGCGGCCCCUGCCAGAUUCUGGUGAAUCUGCGAAUUCUGCUGU [A15U U38C]", 0.613],
  ["GGGGGCCACAGCCGAAGCGUUCAGGUCGCGGCCCCUGUCAGAUUCUGGUGAAUCUGCGAAUUCUGCUGU [A13C C24G]", 0.0828],
  ["GGGGGCCACAGCAGAAGCGUUCACGUCGCGGCCCCUAUCAGAUUCUGGUGAAUCUGCGAUUUCUGCUGU [G37A A60U]", 0.193],
  ["GGGGGCCACAGCAGAAGCGUUCACUUCGCGGCCCCUGUCAGAUUCUGGUGAAUCUGCGACUUCUGCUGU [G25U A60C]", 0.132],
  ["GGGGGCCACUGCAGAAGCGUUCACGUCGCGGCCCCUGUCAGAUUCUGGUGAAUGUGCGAAUUCUGCUGU [A10U C54G]", 0.958],
  ["GGGGGCCACAGCAGAAGCGUUCACGUCGCGGCCCCUGUCAGAUUCUGGUGAAUCCGCGAAUUCUACUGU [U55C G65A]", 0.588],
  ["GGGGGCCACCGCAGAAGCGUUCACGUCGCGGCCCCUGUCAGAUUCUGGUGAAUCUGCGAAUUCAGCUGU [A10C U64A]", 0.779],
  ["GGGGGCCACAGCAGAAGCGUUCACAUCGCGGCCCCUGUCAGAUUCUCGUGAAUCUGCGAAUUCUGCUGU [G25A G47C]", 0.217],
  ["GGGGGCCACAGCAGAAGCGUUCACGUCGCGGCCCCUGUCAGAUUCUGGUGAAACUGCGAUUUCUGCUGU [U53A A60U]", 0.35],
  ["GGGGGCCACAGCAGAAACGUUCACGUCGCGGCCCCUGUCAGAUUUUGGUGAAUCUGCGAAUUCUGCUGU [G17A C45U]", 0.463],
  ["GGGGGCCACAGCAGAAGAGUUCACGUCGCGGCCCCUGUCAGAUUCUGGUGAAUCUGCGAAUGCUGCUGU [C18A U62G]", 0.152],
  ["GGGGGCCACAGCAGAAGCGUUCACGUCGAGGCCCCUGUCAGAUUCUGGUGAAUCUGCUAAUUCUGCUGU [C29A G58U]", 0.795],
  ["GGGGGCCACAGCAGAAGCGUUCACGUCGCGGGCCCUGUCAGAUUCUGGUGAAUCUGCGCAUUCUGCUGU [C32G A59C]", 0.243],
  ["GGGGGCCACAGCAGAAGCGUUCACGUCGCGGCCCCUGUCAGAUUCUGGUGACUCUGCGAAUGCUGCUGU [A52C U62G]", 0.806],
  ["CGGGGCCACAGCAGACGCGUUCACGUCGCGGCCCCUGUCAGAUUCUGGUGAAUCUGCGAAUUCUGCUGU [G1C A16C]", 0.161],
  ["GGCGGCCACAGCAGAAGCGUUCACGUCGAGGCCCCUGUCAGAUUCUGGUGAAUCUGCGAAUUCUGCUGU [G3C C29A]", 0.0865],
  ["GGGGGCCACAGCAGAAGUGUUCACGUCGCGGCCCCUGUCAGUUUCUGGUGAAUCUGCGAAUUCUGCUGU [C18U A42U]", 0.687],
  ["GGGGGCCACAGCAUUAGCGUUCACGUCGCGGCCCCUGUCAGAUUCUGGUGAAUCUGCGAAUUCUGCUGU [G14U A15U]", 0.358],
  ["GGGGGCCACAGCAGAAGCGUUCACGUCGCGGCCCCUGACCGAUUCUGGUGAAUCUGCGAAUUCUGCUGU [U38A A40C]", 0.703],
  ["GGGGGCCACAGCAGAAGCGUUCACGUCGAGGCCCCUGUCAGAUUCUGGUGAAUCUGCCAAUUCUGCUGU [C29A G58C]", 0.685],
  ["GGGGGCCACAGCAGAAGCGUUCACGUCGCGGCCCCUGUCAGACUCUGGUGAAUCUGUGAAUUCUGCUGU [U43C C57U]", 0.394],
  ["GGGGGCCACAGCAGAAGCGUUCACGUCGCGGCACCUGUCAGAUUCUGGUGACUCUGCGAAUUCUGCUGU [C33A A52C]", 0.582],
  ["GGGGGCCACAGCAGAAGCGUUCCCGUCGCGGCCCCUGCCAGAUUCUGGUGAAUCUGCGAAUUCUGCUGU [A23C U38C]", 0.85],
  ["GGGGGCCACAGCAGAAGCGUUCACGUCGCGGCCCCUGACAGAUUCUGGUGAAACUGCGAAUUCUGCUGU [U38A U53A]", 0.864],
  ["GGGGGCCACAGCAGAAGCGUUCACGUGGCGGCCCCUGUCAGAUUUUGGUGAAUCUGCGAAUUCUGCUGU [C27G C45U]", 0.229]
]}
